Biological target: KRas G12S (Homo sapiens, UniProt P01116, G12S)
Construct: Biotinylated KRas (corresponding to amino acids 1-169, produced at Accelegan Inc.); biotin (biotinylated); purchased Accelegan Inc
Sequence (P01116 1-169 isoform P01116-2 G12S): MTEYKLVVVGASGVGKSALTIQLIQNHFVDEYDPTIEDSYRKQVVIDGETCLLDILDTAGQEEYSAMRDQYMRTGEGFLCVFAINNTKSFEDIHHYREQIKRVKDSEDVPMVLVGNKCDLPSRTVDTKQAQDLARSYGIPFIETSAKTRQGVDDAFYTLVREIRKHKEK
Test: KRas binding assay, TR-FRET displacement of Cy5 labelled tracer
Conditions: 60-minute incubation at room temperature, 1% DMSO, pH 7.5
measurement_kind: log10(IC50) (log10 of the value in nM)
# values: log10(IC50), units nM

Reference set, count: 3
Which measured log10(IC50) value corresponds to CCc1c(F)ccc2cc(O)cc(-c3ncc4c(N5CCCCC(C(=O)N(C)C(C)=O)CC5)nc(OC[C@@]56CCCN5C[C@H](F)C6)nc4c3F)c12 (some centres unmarked) [Example 275] ?
1.18

Which measured log10(IC50) value corresponds to N#Cc1c(N)sc2c(F)ccc(-c3c(C(F)(F)F)cc4c(N5CCC(C(=O)Oc6ccccc6)CC5)nc(OC[C@@]56CCCN5C[C@H](F)C6)nc4c3F)c12 [Example 295] ?
1.08

Which measured log10(IC50) value corresponds to CCc1c(F)ccc2cc(O)cc(-c3ncc4c(N5CCC(C=O)CC5)nc(OC[C@@]56CCCN5C[C@H](F)C6)nc4c3F)c12 [Example 15] ?
0.95

Continuing:
Which measured log10(IC50) value corresponds to CCc1c(F)ccc2cc(O)cc(-c3ncc4c(N5CC6CCC(C(=O)n7ccc(C)n7)C6C5)nc(OC[C@@]56CCCN5C[C@H](F)C6)nc4c3F)c12 (some centres unmarked) [Example 104] ?
2.25

Which measured log10(IC50) value corresponds to CCc1c(F)ccc2cc(O)cc(-c3ncc4c(N5C[C@H]6C[C@H](C(=O)n7ccc(C)n7)C[C@H]6C5)nc(OC[C@@]56CCCN5C[C@H](F)C6)nc4c3F)c12 [Example 160] ?
2.66

Which measured log10(IC50) value corresponds to Cc1ccn(C(=O)C2CCN(c3nc(OCC45CCCN4CCC5)nc4c(F)c(-c5cccc6cccc(F)c56)ncc34)CC2)n1 [Example 10] ?
3.67

Which measured log10(IC50) value corresponds to O=CC1CCN(c2nc(OCC34CCCN3CCC4)nc3c(F)c(-c4cccc5cccc(F)c45)ncc23)CC1 [Example 38] ?
4.45

Which measured log10(IC50) value corresponds to CN(CCCC(=O)Nc1cccnc1)c1nc(OC[C@@]23CCCN2C[C@H](F)C3)nc2c(F)c(-c3ccc(F)c4sc(N)c(C#N)c34)c(Cl)cc12 [Example 201] ?
0.70

Which measured log10(IC50) value corresponds to CCc1c(F)ccc2cc(O)cc(-c3ncc4c(N5CC6(C(=O)n7ccc(C)n7)CCCC5C6)nc(OC[C@@]56CCCN5C[C@H](F)C6)nc4c3F)c12 (some centres unmarked) [Example 87] ?
3.23

Which measured log10(IC50) value corresponds to CCc1c(F)ccc2cc(O)cc(-c3ncc4c(N5CC[C@@H](C(=O)n6ccc(C)n6)[C@@H](C)C5)nc(OC[C@@]56CCCN5C[C@H](F)C6)nc4c3F)c12 [Example 79] ?
2.77

Which measured log10(IC50) value corresponds to CN(CCCC(=O)Nc1ccncc1)c1nc(OC[C@@]23CCCN2C[C@H](F)C3)nc2c(F)c(-c3ccc(F)c4sc(N)c(C#N)c34)c(Cl)cc12 [Example 269] ?
0.78

Which measured log10(IC50) value corresponds to CCc1c(F)ccc2cc(O)cc(-c3ncc4c(NC[C@H]5C[C@@H]5C(=O)n5ccc(C)n5)nc(OC[C@@]56CCCN5C[C@H](F)C6)nc4c3F)c12 [Example 159] ?
0.60

Which measured log10(IC50) value corresponds to CCc1c(F)ccc2cc(O)cc(-c3ncc4c(N5CCC(CC(=O)n6ccc(C)n6)C5)nc(OC[C@@]56CCCN5C[C@H](F)C6)nc4c3F)c12 (some centres unmarked) [Example 113] ?
1.49

Which measured log10(IC50) value corresponds to CCc1c(F)ccc2cc(O)cc(-c3ncc4c(NCC5CC(C(=O)n6ccc(C)n6)C5)nc(OC[C@@]56CCCN5C[C@H](F)C6)nc4c3F)c12 (some centres unmarked) [Example 93] ?
0.48

Which measured log10(IC50) value corresponds to CCc1c(F)ccc2cc(O)cc(-c3ncc4c(N5CCN(C(=O)n6cccn6)CC5)nc(OC[C@@]56CCCN5C[C@H](F)C6)nc4c3F)c12 [Example 60] ?
2.06

Which measured log10(IC50) value corresponds to CCc1c(F)ccc2cc(O)cc(-c3ncc4c(N5CCN(C(=O)n6ccc(C)n6)C(CC#N)C5)nc(OC[C@@]56CCCN5C[C@H](F)C6)nc4c3F)c12 (some centres unmarked) [Example 126] ?
1.94

Which measured log10(IC50) value corresponds to CC(C)C(=O)N(C)C(=O)C1CCN(c2nc(OC[C@@]34CCCN3C[C@H](F)C4)nc3c(F)c(-c4ccc(F)c5sc(N)c(C#N)c45)c(Cl)cc23)CC1 [Example 206] ?
0.95

Which measured log10(IC50) value corresponds to COC(=O)CCCN(C)c1nc(OC[C@@]23CCCN2C[C@H](F)C3)nc2c(F)c(-c3ccc(F)c4sc(N)c(C#N)c34)c(Cl)cc12 [Example 217] ?
0.85

Which measured log10(IC50) value corresponds to CCc1c(F)ccc2cc(O)cc(-c3ncc4c(N(C)CCC(=O)N(C)C(C)=O)nc(OC[C@@]56CCCN5C[C@H](F)C6)nc4c3F)c12 [Example 273] ?
1.60

Which measured log10(IC50) value corresponds to CCc1c(F)ccc2cc(O)cc(-c3ncc4c(N5C[C@H]6C[C@@H](C(=O)n7ccc(C)n7)C[C@H]6C5)nc(OC[C@@]56CCCN5C[C@H](F)C6)nc4c3F)c12 [Example 128] ?
1.04

Which measured log10(IC50) value corresponds to O=C(Oc1c(F)cccc1F)[C@H]1[C@@H]2C[C@H]1CN(c1nc(OCC34CCCN3CCC4)nc3c(F)c(-c4cccc5cccc(F)c45)ncc13)C2 [Example 6] ?
3.90
